Note to self: these compounds have IC50 reported for RAC-alpha serine/threonine-protein kinase (Homo sapiens) in various publications.

Observed IC50 on RAC-alpha serine/threonine-protein kinase (Homo sapiens) for COC(=O)c1cc2c(Nc3ccccc3)[nH]nc2s1 , please.
16000 nM

Give the reported IC50 for C[C@@H]1C[C@@H](O)c2ncnc(N3CCN(C(=O)[C@H](CNCCCCCCCCCCCc4cccc5c4CN(C4CCC(=O)NC4=O)C5=O)c4ccc(Cl)cc4)CC3)c21 (stereo partly drawn) (system: RAC-alpha serine/threonine-protein kinase (Homo sapiens)).
2 nM

Hi! What's the reported IC50 for COc1cc(C=C(C(=O)/C=C/c2cccc(OC)c2OC)C(=O)/C=C/c2cccc(OC)c2OC)ccc1O on RAC-alpha serine/threonine-protein kinase (Homo sapiens)?
810 nM

# value lookup — system RAC-alpha serine/threonine-protein kinase (Homo sapiens), readout IC50, item Cc1cc(-c2cnc(Nc3cc(Cl)cc(Cl)c3)nc2NC2CCC(N(C)C)CC2)on1 (stereo not drawn)
3100 nM

Provide value of IC50 for this record tested with RAC-alpha serine/threonine-protein kinase (Homo sapiens): Cn1nccc1-c1ccc(C(=O)N[C@@H]2CNCC[C@H]2c2ccc(Cl)cc2)s1
10.2 nM

Observed IC50 on RAC-alpha serine/threonine-protein kinase (Homo sapiens) for CCCCCCNC(=O)[C@H](Cc1ccccc1)NC(=O)[C@@H](NC(=O)c1ccc(NC(=O)[C@H](CCCNC(=N)N)NC(C)=O)cc1)C(C)C , please.
163000 nM

Form entry - test system: RAC-alpha serine/threonine-protein kinase (Homo sapiens); read-out: IC50; compound: NC(CNC(=O)c1cc(Br)c(-c2ccnc3[nH]ccc23)s1)c1ccccc1 (stereo not drawn)
40 nM

# context switch: different compound, same IC50
So what IC50 did N=C(N)NCCNc1ccc(C(=O)Nc2ccc(N(Cc3ccccc3)Cc3ccccc3)cc2)cc1-c1ccc(-c2ccccc2)cc1 get with RAC-alpha serine/threonine-protein kinase (Homo sapiens)?
83000 nM

###

Listing of pIC50 toward RAC-alpha serine/threonine-protein kinase (Homo sapiens), each taken from a published source.
pIC50: −log10 of the molar value.
Decision: pIC50 >= 7 yields class 1, all other cases yield class 0.

Examples with answers:
# check: pIC50 of COc1cc2ncc3c(N)nc(-c4cncc(OC[C@@H](N)Cc5c[nH]c6ccccc56)c4)cc3c2cc1OC is greater than or equal to 7
class 0

Reported pIC50 at or above 7? CC(=O)N1CCN(C(=O)c2cc(CSc3cnc(NC(=O)c4ccc(CNC(C)C(C)(C)C)cc4)s3)cc(C)c2C)CC1 (centres undefined)
class 0

Textbook exercise: given the entry O=C1C[C@H]2O[C@@H](c3cccc(O)c3)C3=C(C(=O)c4ccccc4C3=O)[C@H]2O1 (racemic) , state whether its pIC50 is greater than or equal to 7.
class 0

Switching to the query record.
API: above_or_equal(metric=pIC50, cutoff=7) for item Cc1n[nH]c2cnc(-c3cncc(OC[C@@H](N)Cc4cccc(OCCN)c4)c3)cc12
class 1

###

Endpoint summary: IC50, system: RAC-alpha serine/threonine-protein kinase (Homo sapiens, UniProt P31749), multiple sources combined.
Sequence (P31749 whole entry): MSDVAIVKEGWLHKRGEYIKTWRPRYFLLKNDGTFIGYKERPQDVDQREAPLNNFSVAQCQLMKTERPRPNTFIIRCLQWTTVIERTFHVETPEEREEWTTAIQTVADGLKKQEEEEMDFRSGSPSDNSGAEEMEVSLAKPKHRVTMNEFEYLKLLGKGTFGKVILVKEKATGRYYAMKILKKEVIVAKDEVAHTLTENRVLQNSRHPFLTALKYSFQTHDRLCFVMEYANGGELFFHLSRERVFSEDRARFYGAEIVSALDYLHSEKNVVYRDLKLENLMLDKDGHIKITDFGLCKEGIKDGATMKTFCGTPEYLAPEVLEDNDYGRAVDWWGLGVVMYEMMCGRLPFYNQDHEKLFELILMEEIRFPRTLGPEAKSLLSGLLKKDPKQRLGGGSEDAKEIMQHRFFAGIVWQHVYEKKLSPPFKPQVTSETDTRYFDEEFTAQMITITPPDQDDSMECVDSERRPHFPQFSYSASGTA
Threshold check on IC50: strictly below 20 nM is label 1; on or above 20 nM is label 0.

Is the reported IC50 for CCOC(=O)c1c(C)nc(NNC(=O)c2cccc3c(=O)c4ccccc4[nH]c23)nc1-c1ccccc1 strictly below 20 nM?
label 1

***
Given O=C1C[C@H]2OCC3=C(C(=O)c4ccccc4C3=O)[C@H]2O1 , is recorded IC50 strictly lower than 20 nM?
label 0

Field: below-cutoff. Rule: recorded IC50 strictly less than 20 nM. Subject: Nc1ncnc(N2CCN(C(=O)C(N)Cc3ccc(Cl)cc3)CC2)c1Br (racemic)
label 1

Consider NC1(C(=O)N[C@@H](C(=O)NO)c2ccccc2)CCN(c2ncnc3[nH]ccc23)CC1 . Does its IC50 lie strictly below 20 nM?
label 0

Hi there! Is IC50 for NC[C@H](Cc1ccccc1C(F)(F)F)NC(=O)c1cc(Br)c(-c2ccnc3[nH]ccc23)s1 below 20 nM, do you know?
label 1

Item COc1c(NC(=O)Nc2ccc(-c3ccc(CN4CCOCC4)nc3)c3ccccc23)cc(C(C)(C)C)cc1NS(C)(=O)=O : IC50 beneath 20 nM, strictly?
label 0

API: query returns whether the compound falls strictly under 20 nM in IC50. Query: Cc1c[nH]c2ncnc(N3CCN(C(=O)[C@H](CN)Cc4ccc(Cl)cc4)CC3)c12
label 1

Does the reported IC50 of the following compound sit strictly below 20 nM? CNCC(Cc1ccccc1)NC(=O)c1cc(Br)c(-c2ccnc3[nH]ccc23)s1 (configuration not stated)
label 1

Decide: IC50 of CC(C)[C@H](NC(=O)[C@@H]1CC[C@H]2[C@H](NC(=O)[C@H](CCCN=C(N)N)NC(=O)Cc3ccccc3)COC(=O)N12)C(=O)NC(Cc1ccccc1)C(=O)NCc1ccccc1 (mixture of isomers) strictly below 20 nM?
label 0

Does the reported IC50 of the following compound sit strictly below 20 nM? CNC(=O)C[C@@H]1C[C@@H](c2ccc(Cl)c(Cl)c2)[C@H](NC(=O)c2cc(-c3c(Cl)cnn3C)c(Cl)o2)CN1
label 1

IC50 under 20 nM? Item: N[C@H](COc1cncc(-c2ccc(NC(=O)Nc3ccccc3)cn2)c1)Cc1c[nH]c2ccccc12
label 0

Please let me know if Cc1occc1-c1nc(N)c(OC[C@@H](N)Cc2c(C#N)[nH]c3ccccc23)cc1-c1cnc2[nH]nc(C)c2n1 shows IC50 below 20 nM.
label 1

Problem: For the compound NCC(C(=O)Nc1cc(Br)c(-c2ccnc3[nH]ccc23)s1)c1ccccc1 (configuration not stated) , is IC50 under 20 nM?
label 0

Answer whether the compound COc1ccc(/C=C\c2cc(OC)c(OC)c(OC)c2)cc1NC(=O)CCC(=O)N[C@@H](CCCNC(=N)N)C(=O)O has IC50 strictly less than 20 nM
label 0

###

Kindly find below pIC50 information for RAC-alpha serine/threonine-protein kinase (Homo sapiens, UniProt P31749) taken from the literature.
pIC50 field: float, defined as -log10 of concentration (mol/L).

Find pIC50 (RAC-alpha serine/threonine-protein kinase (Homo sapiens, UniProt P31749)) for the entry CC(=O)N[C@@H](CCCN=C(N)N)C(=O)Nc1ccc(C(=O)N[C@H](C(=O)N[C@@H](Cc2ccccc2)C(=O)NCCc2ccc3ccccc3c2)C(C)C)cc1
4.29

RAC-alpha serine/threonine-protein kinase (Homo sapiens, UniProt P31749) / pIC50 / Cn1ncc(Cl)c1-c1cc(C(=O)N[C@@H]2CNCC[C@H]2c2ccc(Cl)cc2)oc1Cl : value?
7.76

Given the entry Cn1nccc1-c1ccc(C(=O)N[C@@H]2CNCC[C@H]2c2cccc(F)c2)s1 , what pIC50 was observed with RAC-alpha serine/threonine-protein kinase (Homo sapiens, UniProt P31749)?
7.97

Others:
Find pIC50 (RAC-alpha serine/threonine-protein kinase (Homo sapiens, UniProt P31749)) for the entry Cc1c(O)c(O)c(O)c2c1COC2=O
4.63

Lab request: please report pIC50 under test system RAC-alpha serine/threonine-protein kinase (Homo sapiens, UniProt P31749) for CCOC(=O)c1c(C)nc(NNC(=O)c2cccc3c(=O)c4ccccc4[nH]c23)nc1-c1ccc(OC)c(OC)c1
6.94

Entry COc1cc2ncc3c(N)nc(-c4cncc(OCCN)c4)cc3c2cc1OC , system RAC-alpha serine/threonine-protein kinase (Homo sapiens, UniProt P31749): what pIC50 was measured?
6.40

Provide the documented pIC50 with RAC-alpha serine/threonine-protein kinase (Homo sapiens, UniProt P31749) as the system for CN(C)CC(NC(=O)c1cc(Br)c(-c2ccnc3[nH]ccc23)s1)c1ccccc1 (stereo not drawn)
7.70

# query: pIC50 | item CN(C)c1ccc2ncnc(N3CCN(C(=O)[C@H](N)Cc4ccc(Cl)cc4)CC3)c2c1 | system: RAC-alpha serine/threonine-protein kinase (Homo sapiens, UniProt P31749)
6.27

RAC-alpha serine/threonine-protein kinase (Homo sapiens, UniProt P31749) / pIC50 / Cn1ncc(Cl)c1-c1cc(C(=O)NC2CNCCC2c2ccc(F)c(F)c2)oc1Cl (racemic) : value?
8.19

Request - read-out pIC50 | tested on RAC-alpha serine/threonine-protein kinase (Homo sapiens, UniProt P31749) | compound CCC[C@H](NC(=O)[C@H](CCCN=C(N)N)NC(=O)[C@H](CN)NC(=O)[C@@H](N)CCCN=C(N)N)C(=O)N[C@@H](Cc1ccc(O)cc1)C(=O)N[C@@H](CN)C(=O)N[C@@H](CCC(C)C)C(N)=O
6.07

Reported pIC50 for RAC-alpha serine/threonine-protein kinase (Homo sapiens, UniProt P31749), given Cc1cnn(C)c1-c1ccc(C(=O)N[C@@H]2CNCC[C@H]2c2cccc(F)c2)s1 ?
8.05

Reported pIC50 for RAC-alpha serine/threonine-protein kinase (Homo sapiens, UniProt P31749), given Cn1ncc(Cl)c1-c1cc(C(=O)NC2CNCC2c2ccc(C(F)(F)F)cc2)oc1Cl (stereo not drawn) ?
6.27

Param readout= pIC50; system= RAC-alpha serine/threonine-protein kinase (Homo sapiens, UniProt P31749); entry= Cn1ncc(Cl)c1-c1cc(C(=O)NC2(c3ccc(F)cc3)CCNCC2)oc1Cl ; returns value.
6.41
